# koff per entry
# TGT: T1, recombinant human DLL4 (Cat# 1506-D4/CF, R&D Systems) (human, UniProt Q9NR61 27-529)
# T1 construct: Bought protein; also called hDLL4; rHuman DLL4
# ASSAY PROTOCOL: SPR (ProteOn), hDLL4 amine-coupled on chip
All answers are understood in s⁻¹, so give the number only.

| BINDER | QUANTITY | OBSERVED MEASUREMENT |
| --- | --- | --- |
| Fab VH1-46_IGHD6-6*01_IGHJ1*01 S102A/S103P/S104F/H111F I51V/N52L/S54T/G56H & L6_IGKJ1*01 S28N/S30D/S31H (Fab, V domains shown, Fab made in E. coli: VH on CH1 with His6 and Flag tags (Plasmid A), VL on kappa CL (Plasmid C); also called H: APFF VLTH & L: NDH) VH: QVQLVQSGAEVKKPGASVKVSCKASGYTFTSYYMHWVRQAPGQGLEWMGIVLPTGHSTSYAQKFQGRVTMTRDTSTSTVYMELSSLRSEDTAVYYCAREEYAPFSAEYFQFWGQGTLVTVSS VL: EIVLTQSPATLSLSPGERATLSCRASQNVDHYLAWYQQKPGQAPRLLIYDASNRATGIPARFSGSGSGTDFTLTISSLEPEDFAVYYCQQRSNWPPWTFGQGTKVEIKR | koff | 0.00113 |

Enquiry: Fill blank: measured koff of the binder Fab VH1-46_IGHD6-6*01_IGHJ1*01 S102A/S103P/S104F/H111F & L6_IGKJ1*01 S28N/S30D/S31H (Fab, V domains shown, Fab made in E. coli: VH on CH1 with His6 and Flag tags (Plasmid A), VL on kappa CL (Plasmid C); also called H: APFF & L: NDH) VH: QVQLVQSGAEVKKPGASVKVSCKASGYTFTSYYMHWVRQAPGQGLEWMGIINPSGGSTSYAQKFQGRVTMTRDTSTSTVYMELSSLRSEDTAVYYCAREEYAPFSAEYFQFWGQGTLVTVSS VL: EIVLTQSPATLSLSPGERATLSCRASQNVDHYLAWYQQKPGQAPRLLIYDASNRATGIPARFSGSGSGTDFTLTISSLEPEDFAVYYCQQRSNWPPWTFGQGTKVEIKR is ____.
Return: 0.0689

Enquiry: Input Fab VH5-51_IGHD5-18*01>3_IGHJ4*01 G100K/G104T G24T/S28R/G35V & V3-4_IGLJ1*01 M94R/S96M (Fab, V domains shown, Fab made in E. coli: VH on CH1 with His6 and Flag tags (Plasmid A), VL on lambda CL (Plasmid E); also called H: KT TRV & L: RM; KT TRV-V3-4 RM) VH: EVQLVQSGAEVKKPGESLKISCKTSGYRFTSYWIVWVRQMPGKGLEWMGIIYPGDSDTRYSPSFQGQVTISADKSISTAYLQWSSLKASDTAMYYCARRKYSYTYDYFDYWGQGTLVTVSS VL: QTVVTQEPSFSVSPGGTVTLTCGLSSGSVSTSYYPSWYQQTPGQAPRTLIYSTNTRSSGVPDRFSGSILGNKAALTITGAQADDESDYYCVLYRGMGISYVFGTGTKVTVL
Return: 0.101
